Hey, just so you know, these numbers are from paper PMC4832243.

System: SW-620
Test: NCI 60 cell line panel (SRB), SW-620
Type: cell-based
Conditions: Homo sapiens; SW-620, Colon Cancer; single dose of 10 μM; read-out: Cell Growth Percent
For each record, write down the corresponding activity at 10 µM.
# output: bare number, implied unit %

Query: Find the recorded activity at 10 µM belonging to CCOC(=O)c1c(C)oc2ncnc(Nc3ccc(C(=O)Nc4cccc(Cl)c4)cc3)c12 [Compound 14a] and report it.
Response: 106

Query: I'd like to know its activity at 10 µM. The molecule in question is COc1cccc(NC(=O)Nc2ccc(Oc3ncnc4sc5c(c34)CCCC5)cc2)c1 [Compound 21c]
Response: 96.3

Query: Name the recorded activity at 10 µM for CCOC(=O)c1c(C)oc2ncnc(Nc3ccc(NC(=O)Nc4cccc(Cl)c4)cc3)c12 [Compound 15d] .
Response: 88.6

Query: // activity at 10 µM lookup, key: O=C(Nc1ccccc1)Nc1ccc(Nc2ncnc3sc4c(c23)CCCC4)cc1 [Compound 20a]
Response: 106

* * *

I'd appreciate it if you could supply inhibition at 10 µM values for the items below.
Target: UniProt:P12931
Sequence (P12931 whole entry, species assumed): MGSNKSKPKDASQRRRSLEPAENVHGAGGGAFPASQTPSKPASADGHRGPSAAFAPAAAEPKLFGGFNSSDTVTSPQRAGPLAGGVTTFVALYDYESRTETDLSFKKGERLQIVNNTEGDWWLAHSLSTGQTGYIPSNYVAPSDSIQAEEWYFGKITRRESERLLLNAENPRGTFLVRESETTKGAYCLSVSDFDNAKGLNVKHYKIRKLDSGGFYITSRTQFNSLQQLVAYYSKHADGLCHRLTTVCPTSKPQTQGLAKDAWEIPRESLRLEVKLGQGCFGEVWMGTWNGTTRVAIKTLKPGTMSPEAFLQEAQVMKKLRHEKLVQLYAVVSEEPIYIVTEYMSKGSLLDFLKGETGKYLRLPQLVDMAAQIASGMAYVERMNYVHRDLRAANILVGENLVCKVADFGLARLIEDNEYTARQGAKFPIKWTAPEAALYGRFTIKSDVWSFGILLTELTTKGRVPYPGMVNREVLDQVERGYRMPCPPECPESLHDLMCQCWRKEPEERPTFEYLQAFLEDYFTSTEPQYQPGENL
Experiment: In vitro multiple-kinase inhibition assay, c-Src
Type: biochemical
# output: bare number, implied unit %

Query: I have this compound here, Cc1ccc(NC(=O)Nc2ccc(Oc3ncnc4sc5c(c34)CCCC5)cc2)cc1Cl [Compound 21e] , and I need its recorded inhibition at 10 µM.
Response: 6

Query: Need inhibition at 10 µM of Cc1cccc(NC(=O)Nc2ccc(Oc3ncnc4sc5c(c34)CCCC5)cc2)c1 [Compound 21b] , thanks.
Response: 7

Query: Name the recorded inhibition at 10 µM for CCOC(=O)c1c(C)oc2ncnc(Oc3ccc(NC(=O)Nc4ccc(C)c(Cl)c4)cc3)c12 [Compound 16e] .
Response: 1

Query: # get_value(readout='inhibition at 10 µM', item= COc1cccc(NC(=O)Nc2ccc(Oc3ncnc4sc5c(c34)CCCC5)cc2)c1 [Compound 21c] )
Response: 8

* * *

Biological target: VEGFR-2 (KDR) (Homo sapiens, UniProt P35968)
Construct: purchased BPS Bioscience 40301
Sequence (P35968 20-1356): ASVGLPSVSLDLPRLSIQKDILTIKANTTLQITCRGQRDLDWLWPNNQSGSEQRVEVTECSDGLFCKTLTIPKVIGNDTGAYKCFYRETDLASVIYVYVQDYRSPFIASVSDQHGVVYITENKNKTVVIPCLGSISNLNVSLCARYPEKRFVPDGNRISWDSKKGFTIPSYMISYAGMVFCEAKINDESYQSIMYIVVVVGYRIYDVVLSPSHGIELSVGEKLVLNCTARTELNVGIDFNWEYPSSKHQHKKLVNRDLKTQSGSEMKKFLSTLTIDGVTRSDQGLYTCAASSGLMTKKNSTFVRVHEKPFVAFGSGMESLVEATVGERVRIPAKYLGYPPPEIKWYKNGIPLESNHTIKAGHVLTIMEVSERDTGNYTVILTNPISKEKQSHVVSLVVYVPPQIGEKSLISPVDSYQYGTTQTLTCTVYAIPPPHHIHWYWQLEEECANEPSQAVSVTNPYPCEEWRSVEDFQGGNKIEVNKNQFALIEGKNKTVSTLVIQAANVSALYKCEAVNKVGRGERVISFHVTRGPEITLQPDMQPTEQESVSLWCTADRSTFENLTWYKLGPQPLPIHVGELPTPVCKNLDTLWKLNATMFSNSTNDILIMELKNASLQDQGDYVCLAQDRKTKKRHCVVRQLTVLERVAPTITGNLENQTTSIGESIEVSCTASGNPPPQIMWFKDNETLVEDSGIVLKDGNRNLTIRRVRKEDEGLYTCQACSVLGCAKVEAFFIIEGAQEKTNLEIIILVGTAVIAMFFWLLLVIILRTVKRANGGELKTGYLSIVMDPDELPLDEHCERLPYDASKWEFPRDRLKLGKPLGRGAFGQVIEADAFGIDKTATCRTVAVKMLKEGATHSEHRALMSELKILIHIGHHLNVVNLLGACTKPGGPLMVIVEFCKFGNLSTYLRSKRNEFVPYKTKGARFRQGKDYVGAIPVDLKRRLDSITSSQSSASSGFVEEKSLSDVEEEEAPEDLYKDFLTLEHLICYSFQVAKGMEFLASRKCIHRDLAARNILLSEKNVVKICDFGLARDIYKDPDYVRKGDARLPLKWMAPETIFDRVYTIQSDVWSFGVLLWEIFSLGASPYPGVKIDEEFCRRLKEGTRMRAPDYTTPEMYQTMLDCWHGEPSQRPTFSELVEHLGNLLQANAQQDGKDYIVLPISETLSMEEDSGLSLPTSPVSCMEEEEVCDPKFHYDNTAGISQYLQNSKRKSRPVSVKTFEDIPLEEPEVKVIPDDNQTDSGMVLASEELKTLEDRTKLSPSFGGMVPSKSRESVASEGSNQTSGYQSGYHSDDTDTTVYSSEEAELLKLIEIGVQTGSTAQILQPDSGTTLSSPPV
Assay: In vitro VEGFR-2 tyrosine kinase activity (Kinase-Glo Plus luminescence, BPS Bioscience)
Format: biochemical
Conditions: single dose concentration of 10 μM
So I've got a bunch of molecules here, and I need their inhibition at 10 µM values.
State just the number; it will be interpreted in %.

Query: // query inhibition at 10 µM value for entry CCOC(=O)c1c(C)oc2ncnc(Nc3ccc(C(=O)NCCc4ccccc4)cc3)c12 [Compound 14e]
Response: 10

Query: Please give the measured inhibition at 10 µM for this molecule: CCOC(=O)c1c(C)oc2ncnc(Nc3ccc(C(=O)Nc4ccc(C)cc4)cc3)c12 [Compound 14c]
Response: 14

Query: Any idea what its inhibition at 10 µM is? The molecule is CCOC(=O)c1c(C)oc2ncnc(Nc3ccc(NC(=O)Nc4ccccc4)cc3)c12 [Compound 15a]
Response: 19

* * *

Target: c-Kit (Homo sapiens)
Sequence (P10721 26-976): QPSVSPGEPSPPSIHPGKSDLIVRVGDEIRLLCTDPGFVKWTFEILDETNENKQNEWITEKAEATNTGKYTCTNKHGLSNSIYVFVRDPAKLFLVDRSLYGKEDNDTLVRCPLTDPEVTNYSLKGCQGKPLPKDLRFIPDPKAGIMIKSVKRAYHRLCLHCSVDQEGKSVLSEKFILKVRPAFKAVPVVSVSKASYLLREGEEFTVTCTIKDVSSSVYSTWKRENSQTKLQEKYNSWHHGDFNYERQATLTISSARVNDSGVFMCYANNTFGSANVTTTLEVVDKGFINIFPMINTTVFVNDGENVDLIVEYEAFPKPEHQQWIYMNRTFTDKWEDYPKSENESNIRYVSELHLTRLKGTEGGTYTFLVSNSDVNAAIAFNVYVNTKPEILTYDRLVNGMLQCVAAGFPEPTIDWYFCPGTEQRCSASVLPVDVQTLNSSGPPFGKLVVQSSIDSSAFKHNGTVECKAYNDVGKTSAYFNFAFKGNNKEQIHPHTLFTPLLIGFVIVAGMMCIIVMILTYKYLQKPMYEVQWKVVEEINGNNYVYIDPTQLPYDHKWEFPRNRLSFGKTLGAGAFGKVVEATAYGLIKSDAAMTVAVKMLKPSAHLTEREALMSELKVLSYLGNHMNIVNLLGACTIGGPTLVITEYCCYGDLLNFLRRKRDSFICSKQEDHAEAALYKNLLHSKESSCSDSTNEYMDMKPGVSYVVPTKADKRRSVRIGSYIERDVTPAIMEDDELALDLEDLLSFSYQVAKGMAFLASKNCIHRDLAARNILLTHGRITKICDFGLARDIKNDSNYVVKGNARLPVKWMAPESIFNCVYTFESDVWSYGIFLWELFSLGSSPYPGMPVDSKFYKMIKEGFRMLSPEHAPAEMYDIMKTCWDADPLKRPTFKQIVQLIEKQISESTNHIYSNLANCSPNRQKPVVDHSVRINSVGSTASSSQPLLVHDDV
Assay: In vitro multiple-kinase inhibition assay, c-Kit (ADP-Glo)
Format: biochemical
Would you mind telling me the reported inhibition at 10 µM of each entry?
The reply must contain the numeric value and, after it, the unit.

Query: For the compound CCOC(=O)c1c(C)oc2ncnc(Oc3ccc(NC(=O)Nc4ccc(C)c(Cl)c4)cc3)c12 [Compound 16e] , what inhibition at 10 µM is on record?
Response: 72%

Query: Look up inhibition at 10 µM: Cc1cccc(NC(=O)Nc2ccc(Oc3ncnc4sc5c(c34)CCCC5)cc2)c1 [Compound 21b]
Response: 81%

Query: Which inhibition at 10 µM reading was recorded for the compound Cc1ccc(NC(=O)Nc2ccc(Oc3ncnc4sc5c(c34)CCCC5)cc2)cc1Cl [Compound 21e] ?
Response: 64%

Query: For the compound COc1cccc(NC(=O)Nc2ccc(Oc3ncnc4sc5c(c34)CCCC5)cc2)c1 [Compound 21c] , what inhibition at 10 µM is on record?
Response: 83%
